- target_entity: PPAR-gamma ligand binding domain fused to GAL4 DNA binding domain (UniProt P37231)
- experiment: Transient transfection transactivation assay in CV-1 cells, PPAR-gamma (GAL4 chimera, luciferase reporter)
- measurement_conditions: 20-24 hours
Below, each entry is listed alongside its reported EC50.

// worked examples, EC50 included
> print(dat)
                                   compound  recorded.metric  value.observed
1  C[C@@H]1CN(CCc2ccc(Cl)cc2)C[C@H](C)N1S(=O)(=O)c1cccc2c1CC(C(=O)O)C2 (stereo partly shown) [Example 24]             EC50        > 100 µM
2  O=C(O)C1Cc2cccc(S(=O)(=O)N3CCN(CCCc4ccc(OC(F)(F)F)cc4)CC3)c2C1 (stereo not shown) [Example 22]             EC50          < 5 µM
3  C[C@@H]1CN(Cc2ccc(OC(F)(F)F)c(F)c2)C[C@H](C)N1S(=O)(=O)c1cccc2c1CC(C(=O)O)C2 (stereo partly shown) [Example 5]             EC50     5 to 100 µM
4  O=C(O)C1Cc2cccc(S(=O)(=O)N3CCN(C(=O)c4ccc(OC(F)(F)F)cc4)CC3)c2C1 (stereo not shown) [Example 18]             EC50        > 100 µM
5  C[C@@H]1CN(CC2(c3ccc(Cl)cc3)CC2)C[C@H](C)N1S(=O)(=O)c1cccc2c1CC(C(=O)O)C2 (stereo partly shown) [Example 25]             EC50        > 100 µM

query: Identify measured EC50 corresponding to C[C@@H]1CN(C(=O)Cc2ccc(OC(F)(F)F)cc2)C[C@H](C)N1S(=O)(=O)c1cccc2c1CC(C(=O)O)C2 (stereo partly shown) [Example 7]
result: > 100 µM

query: Identify measured EC50 corresponding to C[C@@H]1CN(C(=O)CCc2ccc(OC(F)(F)F)cc2)C[C@H](C)N1S(=O)(=O)c1cccc2c1CC(C(=O)O)C2 (stereo partly shown) [Example 8]
result: > 100 µM
